test_description: MTS cell toxicity assay, Huh-7 cells
Type: cell-based
test_parameters: human, Huh-7 cells, 24 h, 10 min light exposure after 1 h; read-out: 50% cytotoxic concentration (CC50)

compound	CC50 at 24 h / µM
C=Cc1c(C)c2cc3nc(c4c5[nH]c(cc6nc(cc1[nH]2)C(C)=C6CC)c(C)c5C(=O)[C@@H]4C(=O)OC)[C@@H](CCC(=O)O)[C@@H]3C [Pba, pheophorbide a]	4.4

###

Tested on: SARS-CoV-2
test_description: microbe, parasite or virus in culture
Format: cell-based
test_parameters: Severe acute respiratory syndrome coronavirus 2, Vero C1008, read-out: IC50, SARS-CoV-2 infectious titers
experimental_endpoint: IC50 (nM)

molecule	experimental_endpoint	quantity_unit	readout_number
C=Cc1c(C)c2cc3nc(c4c5[nH]c(cc6nc(cc1[nH]2)C(C)=C6CC)c(C)c5C(=O)[C@@H]4C(=O)OC)[C@@H](CCC(=O)O)[C@@H]3C [Pba, pheophorbide a]	IC50	nM	180

Source: paper PMC8846325
